system: HOP-92; assay: NCI tumour cell line growth inhibition, 48 h
Calls of active or inactive are those of the source. Cut-off read from the data, not from the text of the source: active = GI50 up to about 1.1 µM and inactive = higher.

{"columns": ["Compound", "GI50"],
 "data": [
  ["Cc1ccc(C(=O)N/N=C(\\N=N\\c2ccc([N+](=O)[O-])cc2)c2ccc(N(CCC#N)CCC#N)cc2C)cc1", "> 100 µM (inactive)"],
  ["CC(C)(O)[C@@H]1CCC(C)([C@H]2[C@@H](O)CC3(C)C4CC(OC5OC(CO)C(O)C(O)C5O)C5C(C)(C)[C@@H](OC6OCC(O)C(O)C6O)CC[C@@]56C[C@@]46CC[C@]23C)O1 (stereo partly specified)", "> 100 µM (inactive)"],
  ["O=C(/C=C/c1ccc(Cl)c(Cl)c1)CCN1CCN(CCC(=O)/C=C/c2ccc(Cl)c(Cl)c2)CC1", "22.8 µM (inactive)"],
  ["Cc1ccc(C2(O)CC(c3ccc([N+](=O)[O-])o3)=NN2C(=O)COc2ccc(Cl)cc2)cc1 (stereo unspecified)", "7.93 µM (inactive)"],
  ["[N-]=[N+]=C1C(=O)c2ccccc2-c2ccccc21", "33.3 µM (inactive)"],
  ["C/C(=N\\NC(=S)N1CCOCC1)c1nc2cccnc2[nH]1", "14.1 µM (inactive)"],
  ["COc1ccc2c(c1)CC[C@@H]1C2CC[C@]2(C)C(=O)N(CCN3CCCCC3)C(=O)CC12 (stereo partly specified)", "44.5 µM (inactive)"],
  ["COc1ccc(C(=O)N(C(=O)N2CCN(c3ccccc3)CC2)S(=O)(=O)c2ccccc2)cc1", "25.4 µM (inactive)"],
  ["COc1ccc2c(c1)CCN=C2c1ccccc1CCCCl", "26.7 µM (inactive)"],
  ["c1ccc2cc3c(cc2c1)OP1(Oc2cccc4cccnc24)(O3)Oc2cc3ccccc3cc2O1", "3.57 µM (inactive)"],
  ["COC(=O)C1=C(C)N(NC(N)=O)C2(N)N(NC(N)=O)C(C)=C(C(=O)OC)C12C(=O)OC (stereo unspecified)", "> 100 µM (inactive)"],
  ["COc1ccc(C[C@@H](CO)NC2=C(C#N)CCC2)cc1", "43.5 µM (inactive)"],
  ["CC(C)NC(=O)OCc1c2c(n(C)c1COC(=O)NC(C)C)-c1cc(Cl)c(Cl)cc1CC2", "19.5 µM (inactive)"],
  ["COCOc1cc(OCOC)cc(C(=O)Oc2ccccc2)c1", "> 100 µM (inactive)"],
  ["OCCNc1ncnc2[nH]cnc12", "> 100 µM (inactive)"],
  ["ClCCN1CCOC1=C1C=CC=C1", "> 100 µM (inactive)"]
]}

* * *

test system: SF-295; experiment: NCI tumour cell line growth inhibition, 48 h
The source made the active and inactive calls. No stated cut-off is given here; in the data, active = GI50 up to about 1.1 µM and inactive = higher.
Classes used: Y = active, N = inactive

{"columns": ["Compound", "Label value"],
 "data": [
  ["CCOC(=O)c1sc2nc(SC)nc(Nc3ccc(OC)c(OC)c3)c2c1N", "N"],
  ["COC(=O)C1CCOC(C)N1C(=O)OC(C)(C)C (stereo unspecified)", "N"],
  ["Cc1nn(C(=O)c2ccc(Cl)cc2)c2c1C(c1ccccc1[N+](=O)[O-])SC(=N)N2 (stereo unspecified)", "N"],
  ["CC(=O)OCC1=C(C)C[C@H]([C@@H](COC(C)=O)C2CCC3C4C[C@H]5O[C@]56CC=CC(=O)[C@]6(C)C4CC[C@@]32C)OC1=O (stereo partly specified)", "N"],
  ["Cc1cc(N(CCC#N)CCC#N)ccc1C(=N/NC(=O)c1cc(Cl)ccc1O)/N=N/c1cccc([N+](=O)[O-])c1", "N"],
  ["CCOC(=O)CC1=N/C(=N/C(=N)N[N+](=O)[O-])SC1", "N"],
  ["Nc1nc2ncc(SCc3ccc(C(=O)NC(CCC(=O)O)C(=O)O)cc3)cc2c(=O)[nH]1 (stereo unspecified)", "N"],
  ["CC(C)C(=O)Nc1nc2c(ncn2C2OC(CO)C(O)C2O)c(=O)[nH]1 (stereo unspecified)", "N"],
  ["CC(C)N/C(N)=N/C#N", "N"],
  ["CCN(CC)CCNc1ccc2nnn3c4ccc(OC)cc4c(=O)c1c23", "N"],
  ["O=c1cc(-c2cccnc2)[nH]c2cc3c(cc12)OCO3", "N"],
  ["O=c1ccn(C2OC(CN(O)CCC3C(CO)OC(n4ccc(=O)[nH]c4=O)C3O)C(O)C2O)c(=O)[nH]1 (stereo unspecified)", "N"],
  ["Cc1ccc2nc(-n3c(/C=C/c4ccccc4O)nc4ccccc4c3=O)sc2c1", "N"],
  ["CCOC(=O)c1cc(-c2ccc(OC)cc2)c([N+](=O)[O-])[nH]1", "N"],
  ["O=c1[nH]c(C23CC4CC(CC(C4)C2)C3)cc2c1c(=O)oc1ccccc12", "N"],
  ["CCOC(=O)C1=C(c2ccccc2)NC(c2ccccc2)=C(C(=O)OCC)c2c1c(=O)cc[nH]c2=O", "N"],
  ["COc1ccc2c(c1)c(=O)c1c(NCCN(C)C)ccc3c(=O)n(CCN(C)C)c(=O)n2c31", "Y"],
  ["OC1/C(=C/c2ccccc2)CNC/C1=C\\c1ccccc1 (stereo unspecified)", "N"],
  ["CC1C(=NO)C(C)C(c2ccccc2)N(N=O)C1c1ccccc1 (stereo unspecified)", "N"],
  ["CC(=O)Nc1ccccc1Sc1ccccc1", "N"],
  ["O=S(=O)(O)c1ccc(/N=N\\c2c(O)ccc3cc(Br)ccc23)cc1", "N"]
]}

* * *

system: NCI-H522; test: NCI tumour cell line growth inhibition, 48 h
The source made the active and inactive calls. No stated cut-off is given here; in the data, active = GI50 up to about 1.1 µM and inactive = higher.
Possible outcomes: active, inactive

{"columns": ["Molecule", "Label value"],
 "data": [
  ["CC1=NN(C(=O)c2ccc(Cl)cc2)C(=O)/C1=C/c1c(O)cc(O)c2ccccc12", "inactive"],
  ["O=C(CC(=O)c1cccc2ccccc12)C(=O)NC1C2CC3CC(C2)CC1C3 (stereo not drawn)", "inactive"],
  ["CCC/C(=N\\NC(=S)N1CCN(c2ccccn2)CC1)c1ccccn1", "active"],
  ["C/C(=N\\Nc1nc2cc(F)ccc2s1)c1ccccn1", "active"],
  ["CO/N=C(\\C)c1ccc(Nc2nc3ccccc3c3occc23)cc1", "inactive"],
  ["CCCCCCCCCCCC(=O)OC[C@@H](C[As](=O)(O)O)OC(=O)CCCCCCCCCCC", "inactive"],
  ["O=C(OCc1ccccc1)N1CCN(C(=O)OCc2ccccc2)CCN(C(=O)OCc2ccccc2)CCN(C(=O)OCc2ccccc2)CCN(C(=O)OCc2ccccc2)CC1", "inactive"],
  ["C=C1C(=O)OC2/C=C(/C)C3CC(O)C(C)(CC(OC(=O)/C(C)=C/C)C12)O3 (stereo not drawn)", "inactive"]
]}

* * *

tested on: NCI/ADR-RES; test: NCI tumour cell line growth inhibition, 48 h
Activity calls are given as the source filed them. Cut-off read from the data, not from the text of the source: active = GI50 up to about 1.1 µM and inactive = higher.
Possible outcomes: active, inactive

{"columns": ["Compound", "Label value"],
 "data": [
  ["CC(=O)OCC1=C(C)C[C@H]([C@@H](COC(C)=O)C2CCC3C4C[C@H]5O[C@]56CC=CC(=O)[C@]6(C)C4CC[C@@]32C)OC1=O (stereo partly drawn)", "active"],
  ["O=[N+]([O-])c1cnccc1-n1nnc2ccccc21", "inactive"],
  ["O=[N+]([O-])c1ccc2c(c1)C1=NN(c3ccccc3)C(c3ccccc3Br)C1CCC2 (stereo not drawn)", "inactive"],
  ["C=C1C[C@]23CC[C@@H]4C(CO)(CO)CC(=O)C[C@]4(C)[C@@H]2C(O)C[C@H]1C3 (stereo partly drawn)", "inactive"],
  ["N[C@H]1CCC[C@@H](O)C1O (stereo partly drawn)", "inactive"],
  ["CSc1ccc(/C=C2\\N=C(c3ccccc3)N(c3nc4cc(C)c(C)cc4s3)C2=O)cc1", "inactive"],
  ["CC(C)(C)OC(=O)CCC1NC(=O)[C@@H]2Cc3c([nH]c4ccccc34)C(C3CCCCC3)N2C1=O (stereo partly drawn)", "inactive"],
  ["Cc1cc(C)nc(NS(=O)(=O)c2ccc(NC(=O)c3ccc4nc5ccccc5c(Nc5ccc(S(=O)(=O)Nc6nc(C)cc(C)n6)cc5)c4c3)cc2)n1", "inactive"]
]}

* * *

system: U-251; test: NCI tumour cell line growth inhibition, 48 h
Activity calls are given as the source filed them. Rule as the data show it: active = GI50 up to about 1.1 µM and inactive = higher.
Listed here are compounds together with their documented GI50.
Measured endpoint: GI50

{"columns": ["Compound", "Readout value"],
 "data": [
  ["O=C1NC(c2cccc(OCc3ccccc3)c2)Nc2ccccc21 (configuration not stated)", "0.232 µM (active)"],
  ["COc1ccc(CNNC(=O)c2cc[n+]([BH2-]C#N)cc2)cc1OC", "> 100 µM (inactive)"],
  ["CNc1nc(OC)c2c(n1)n(C)c[n+]2C", "45.7 µM (inactive)"],
  ["O=CC12CCCN1CCC2", "> 100 µM (inactive)"],
  ["O=C1OCC(CN2CCC(n3c(=O)[nH]c4ccccc43)CC2)=C1c1ccccc1", "35.5 µM (inactive)"],
  ["C/C(=N\\NC(=S)N1CCOCC1)c1nc2cccnc2[nH]1", "21.6 µM (inactive)"],
  ["O=[N+]([O-])/C(Cl)=C(\\NCCO)C(Cl)=C(Cl)Cl", "> 93.3 µM (inactive)"],
  ["CCN(CC)CCNc1ccc2nnn3c4ccc(OC)cc4c(=O)c1c23", "10.4 µM (inactive)"],
  ["CCN(CC)c1ccc(/N=N/c2ccc(-c3nc4cccnc4s3)cc2)cc1", "> 100 µM (inactive)"],
  ["CN(C)CC/C(=N\\Nc1ccc(Cl)cc1Cl)c1ccccc1", "12.4 µM (inactive)"],
  ["Cc1ccc(S(=O)(=O)NC(=O)NC2=NC(C)(C)N(c3ccc(Cl)c(Cl)c3)C(N)=N2)cc1", "5.68 µM (inactive)"],
  ["S=C(NCCCCCCNC(=S)Nc1c2ccccc2nc2ccccc12)Nc1c2ccccc2nc2ccccc12", "> 91.8 µM (inactive)"],
  ["C#CC1(O)c2ccccc2C(=O)c2ccccc21", "> 100 µM (inactive)"],
  ["O=C(c1ccccc1)N1C2C3CC(OCc4ccccc4)(OCc4ccccc4)C(O3)C21 (configuration not stated)", "> 100 µM (inactive)"],
  ["COc1ccc2c(c1)CC[C@@H]1C2CC[C@]2(C)C(=O)N(CCN3CCCCC3)C(=O)CC12 (some centres not stated)", "> 100 µM (inactive)"],
  ["C/C(=N/NC(=S)Nc1cccc(Cl)c1)c1cccc(/C(C)=N\\NC(=S)Nc2cccc(Cl)c2)n1", "3.13 µM (inactive)"],
  ["Nc1ccc2nc3n(c(=O)c2c1)CCCCC3", "> 100 µM (inactive)"],
  ["CCN(CC)CCCNc1nc(=O)[nH]c(C)c1C(=O)Nc1c2ccccc2nc2ccccc12", "12.6 µM (inactive)"],
  ["O=C(/C=C/c1ccc(O)c(O)c1)OCc1ccccc1 [BENZYL CAFFEATE]", "14.5 µM (inactive)"],
  ["COc1ccc(C(=O)N(C(=O)N2CCN(c3ccccc3)CC2)S(=O)(=O)c2ccccc2)cc1", "18.1 µM (inactive)"],
  ["N[C@H]1CCc2c1nc1c(c2-c2ccccc2)CC[C@@H]1N", "20.5 µM (inactive)"],
  ["CCCCCCOc1ccc(C(=O)NOC)cc1", "> 100 µM (inactive)"]
]}
